Give measured OD value for each item. Keep answers brief.
- Target or system: T1, recombinant human regenerating islet-derived protein 1α (REG1A) (human, UniProt P05451 23-166, limits assumed)
- T1 construct: also called recombinant human REG1A; recombinant REG1A
- T1 sequence (looked up): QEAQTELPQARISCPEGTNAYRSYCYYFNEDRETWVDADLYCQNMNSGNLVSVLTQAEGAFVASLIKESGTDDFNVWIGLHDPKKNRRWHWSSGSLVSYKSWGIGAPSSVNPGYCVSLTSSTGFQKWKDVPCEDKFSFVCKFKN
- Protocol summary: sandwich ELISA; capture 12F12A10; REG1A 33.33 ng/mL
Numeric only. Scale: OD

Query: Give the reported value of OD value for this record: antibody 21B11D2 (antibody, mouse IgG2b, kappa, V domains shown, Mouse monoclonal from hybridoma, stated mouse IgG1/Kappa; Used unlabelled as capture and biotin-labelled as detection antibody; also called 21B11D2-biotin) VH: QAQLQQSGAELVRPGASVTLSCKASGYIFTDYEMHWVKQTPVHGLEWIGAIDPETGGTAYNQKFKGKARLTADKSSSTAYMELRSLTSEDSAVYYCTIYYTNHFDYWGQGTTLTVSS VL: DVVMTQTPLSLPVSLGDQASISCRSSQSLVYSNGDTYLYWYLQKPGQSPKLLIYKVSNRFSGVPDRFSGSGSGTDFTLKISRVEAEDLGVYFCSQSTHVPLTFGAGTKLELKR
Reply: 3.21

Query: Give the reported value of OD value for this record: antibody 4H8F1 (antibody, V domains shown, Mouse monoclonal from hybridoma, stated mouse IgG1/Kappa; also called 4H8F1-biotin; Antibody 1) VH: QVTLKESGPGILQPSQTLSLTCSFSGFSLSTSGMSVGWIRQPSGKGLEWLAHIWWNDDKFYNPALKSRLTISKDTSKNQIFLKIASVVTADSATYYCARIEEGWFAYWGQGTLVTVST VL: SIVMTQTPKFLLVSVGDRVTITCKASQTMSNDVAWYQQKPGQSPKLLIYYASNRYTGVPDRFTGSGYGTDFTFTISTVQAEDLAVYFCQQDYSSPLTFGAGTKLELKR
Reply: 3.27

Query: Give the reported value of OD value for this record: antibody 12F12A10 (antibody, V domains shown, Mouse monoclonal from hybridoma, stated mouse IgG1/Kappa; also called 12F12A10-biotin; Antibody 2) VH: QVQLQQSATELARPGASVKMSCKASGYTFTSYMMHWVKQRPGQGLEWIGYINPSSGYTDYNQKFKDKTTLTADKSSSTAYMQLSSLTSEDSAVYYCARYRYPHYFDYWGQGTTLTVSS VL: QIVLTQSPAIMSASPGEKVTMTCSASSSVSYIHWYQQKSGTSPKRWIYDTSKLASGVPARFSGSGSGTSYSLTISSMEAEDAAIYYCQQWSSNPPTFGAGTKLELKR
Reply: 0.098

Query: Give the reported value of OD value for this record: antibody 11D11B11 (antibody, mouse IgG2a, kappa, V domains shown, Mouse monoclonal from hybridoma, stated mouse IgG1/Kappa; Used unlabelled as capture and biotin-labelled as detection antibody; also called 11D11B11-biotin) VH: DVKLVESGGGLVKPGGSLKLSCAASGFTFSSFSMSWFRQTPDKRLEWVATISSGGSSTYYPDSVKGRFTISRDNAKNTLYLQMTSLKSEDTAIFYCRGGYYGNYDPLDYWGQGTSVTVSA VL: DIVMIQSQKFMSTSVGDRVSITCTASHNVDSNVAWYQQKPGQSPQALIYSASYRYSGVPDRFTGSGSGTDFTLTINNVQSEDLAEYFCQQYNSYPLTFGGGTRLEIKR
Reply: 3.03
